// provenance: patent US20150087627A1

molecular target: PI3K β (p110β/p85α) (Homo sapiens); construct: purchased Upstate / Millipore Corporation; test: PI 3-Kinase (human) HTRF assay, PI3K β; type: biochemical; settings: read-out: PI3K β IC50
Sequence (P42338 whole entry): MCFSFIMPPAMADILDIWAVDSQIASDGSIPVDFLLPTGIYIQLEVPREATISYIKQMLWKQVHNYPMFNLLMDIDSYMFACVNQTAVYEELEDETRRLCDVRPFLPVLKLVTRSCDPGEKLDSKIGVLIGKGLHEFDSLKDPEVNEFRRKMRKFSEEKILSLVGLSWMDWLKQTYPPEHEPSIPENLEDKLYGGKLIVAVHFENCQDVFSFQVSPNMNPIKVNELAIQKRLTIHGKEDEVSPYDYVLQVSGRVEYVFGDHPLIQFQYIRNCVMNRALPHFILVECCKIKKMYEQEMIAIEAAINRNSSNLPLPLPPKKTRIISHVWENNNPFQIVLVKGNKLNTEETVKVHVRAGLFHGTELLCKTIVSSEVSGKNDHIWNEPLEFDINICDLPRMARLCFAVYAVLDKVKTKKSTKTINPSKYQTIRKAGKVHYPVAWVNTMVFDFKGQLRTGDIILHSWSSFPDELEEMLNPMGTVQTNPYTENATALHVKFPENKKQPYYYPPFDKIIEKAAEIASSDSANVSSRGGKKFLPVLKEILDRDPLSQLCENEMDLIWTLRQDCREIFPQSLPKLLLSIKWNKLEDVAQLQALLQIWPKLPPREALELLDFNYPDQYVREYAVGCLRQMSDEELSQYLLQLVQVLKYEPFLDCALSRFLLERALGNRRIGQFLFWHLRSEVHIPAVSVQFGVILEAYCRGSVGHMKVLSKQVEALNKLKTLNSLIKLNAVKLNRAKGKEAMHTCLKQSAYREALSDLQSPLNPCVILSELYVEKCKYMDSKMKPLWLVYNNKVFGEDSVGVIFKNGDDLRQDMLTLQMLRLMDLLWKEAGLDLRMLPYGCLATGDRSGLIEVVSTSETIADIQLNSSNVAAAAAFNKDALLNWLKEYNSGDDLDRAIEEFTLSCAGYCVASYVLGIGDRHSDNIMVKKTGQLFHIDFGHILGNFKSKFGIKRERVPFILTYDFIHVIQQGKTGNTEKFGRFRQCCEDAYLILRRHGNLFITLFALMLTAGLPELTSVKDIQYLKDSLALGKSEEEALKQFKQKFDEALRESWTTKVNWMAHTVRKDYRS
Sequence (P27986 whole entry partner): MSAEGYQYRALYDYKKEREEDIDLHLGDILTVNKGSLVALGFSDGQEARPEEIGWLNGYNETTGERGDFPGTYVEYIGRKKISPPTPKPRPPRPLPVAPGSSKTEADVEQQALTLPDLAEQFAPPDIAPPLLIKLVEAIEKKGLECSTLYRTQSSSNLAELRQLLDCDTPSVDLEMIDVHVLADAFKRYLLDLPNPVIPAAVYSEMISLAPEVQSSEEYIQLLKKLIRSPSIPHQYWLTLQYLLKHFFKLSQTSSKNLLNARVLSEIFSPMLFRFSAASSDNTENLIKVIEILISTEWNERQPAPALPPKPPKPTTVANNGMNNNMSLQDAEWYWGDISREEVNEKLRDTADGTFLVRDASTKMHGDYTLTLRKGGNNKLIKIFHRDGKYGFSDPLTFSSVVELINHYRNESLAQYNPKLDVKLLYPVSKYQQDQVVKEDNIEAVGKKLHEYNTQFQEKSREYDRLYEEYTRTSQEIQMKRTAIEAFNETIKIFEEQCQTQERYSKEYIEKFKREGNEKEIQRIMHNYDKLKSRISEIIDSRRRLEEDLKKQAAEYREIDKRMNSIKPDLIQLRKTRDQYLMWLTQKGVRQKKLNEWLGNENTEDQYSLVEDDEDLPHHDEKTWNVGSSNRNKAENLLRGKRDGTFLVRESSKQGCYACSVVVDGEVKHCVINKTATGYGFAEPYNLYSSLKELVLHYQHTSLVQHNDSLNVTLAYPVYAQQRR

[
  {
    "molecule": "C[C@H]1CN(C2CN(C(=O)c3cnc4ccc(-c5ccc6oc(N)nc6c5)cn34)C2)CCN1C",
    "IC50": "< 10 µM"
  },
  {
    "molecule": "C[C@H]1CN(c2nc3cc(-c4ccc5oc(N)nc5c4)ccc3nc2N)CCN1",
    "IC50": "> 10 µM"
  },
  {
    "molecule": "Nc1nc2cc(-c3ccc4ncc(C(=O)N5CCC(N6CC(F)(F)C6)C5)n4c3)ccc2o1 (stereo not shown)",
    "IC50": "> 10 µM"
  },
  {
    "molecule": "Nc1nc2cc(-c3ccc4ncc(N5CCN(C(=O)[C@H]6CCCN6)CC5)nc4c3)ccc2o1",
    "IC50": "< 0.1 µM"
  },
  {
    "molecule": "Cc1c(-c2ccc3oc(N)nc3c2)ccc2ncc(N3CC(N4CCNCC4)C3)nc12",
    "IC50": "> 10 µM"
  },
  {
    "molecule": "CNc1nsc2cc(-c3ccc4ncc(C(=O)N5CCOCC5)n4c3)ccc12",
    "IC50": "> 10 µM"
  },
  {
    "molecule": "C[C@H]1COCCN1C(=O)c1cnc2ccc(-c3ccc4oc(N)nc4c3)cn12",
    "IC50": "< 10 µM"
  },
  {
    "molecule": "CC1CN(C(=O)c2cnc3ccc(-c4ccc5oc(N)nc5c4)cn23)CC(C)N1 (stereo not shown)",
    "IC50": "> 10 µM"
  },
  {
    "molecule": "CC1(C)CN(c2cnc3ccc(-c4ccc5oc(N)nc5c4)cc3n2)CCN1",
    "IC50": "< 1 µM"
  },
  {
    "molecule": "Nc1nc2ccc(-c3ccc4nccc(-c5ccncc5)c4c3)cc2o1",
    "IC50": "< 0.1 µM"
  },
  {
    "molecule": "Nc1nc2cc(-c3ccc4ncc(C(=O)N5CCS(=O)(=O)CC5)n4c3)ccc2o1",
    "IC50": "> 10 µM"
  },
  {
    "molecule": "CN1CCN(C2CN(c3cnc4ccc(-c5ccc6oc(N)nc6c5)cc4n3)C2)CC1",
    "IC50": "< 10 µM"
  },
  {
    "molecule": "Cc1cn(C2CCN(c3cnc4ccc(-c5ccc6oc(N)nc6c5)cc4n3)CC2)cn1",
    "IC50": "< 10 µM"
  },
  {
    "molecule": "CS(=O)(=O)Nc1cc(-c2ccc3ncc(C(=O)N4CCOCC4)n3c2)ccc1Cl",
    "IC50": "> 10 µM"
  },
  {
    "molecule": "CC1CN(c2cnc3ccc(-c4ccc5oc(N)nc5c4)cc3n2)CC(C)N1 (stereo not shown)",
    "IC50": "< 1 µM"
  },
  {
    "molecule": "Nc1nc2cc(-c3ccc4ncc(C(=O)N5CCOCC5)n4c3)cnc2o1",
    "IC50": "< 10 µM"
  },
  {
    "molecule": "O=C(c1cnc2ccc(-c3cnc(Cl)c(NS(=O)(=O)c4cccc(F)c4)c3)cn12)N1CCOCC1",
    "IC50": "< 0.1 µM"
  },
  {
    "molecule": "Nc1nc2cc(-c3ccc4ncc(N5CC[C@H](N6CCOCC6)C5)nc4c3)ccc2o1",
    "IC50": "< 10 µM"
  },
  {
    "molecule": "CCN(CC)CCCNC(=O)c1cnc2ccc(-c3ccc4oc(N)nc4c3)cn12",
    "IC50": "< 10 µM"
  },
  {
    "molecule": "COc1ccc(-c2ccc3ncc(C(=O)N4CCOCC4)n3c2)cc1S(=O)(=O)Nc1ccccc1",
    "IC50": "> 10 µM"
  },
  {
    "molecule": "CC(C)N1CCC(n2cnc3ccc(-c4cnc(Cl)c(NS(=O)(=O)c5ccccc5)c4)cc3c2=O)CC1",
    "IC50": "< 0.1 µM"
  },
  {
    "molecule": "CN(C)CC(=O)N1CCN(c2cnc3ccc(-c4ccc5oc(N)nc5c4)cc3n2)CC1 [Compound 217]",
    "IC50": "< 1 µM"
  },
  {
    "molecule": "CC(=O)Nc1nc2ccc(-c3ccc4nccc(-c5ccncc5)c4c3)cc2s1",
    "IC50": "> 10 µM"
  },
  {
    "molecule": "Cc1ccn(C2CCN(C(=O)c3cnc4ccc(-c5ccc6oc(N)nc6c5)cn34)CC2)n1",
    "IC50": "> 10 µM"
  },
  {
    "molecule": "CN1CC(n2cnc3ccc(-c4ccc5oc(N)nc5c4)cc3c2=O)C1",
    "IC50": "< 10 µM"
  }
]

====

# IC50 per record follows
biological target: PI3K γ (p110γ) (Homo sapiens, UniProt P48736); construct: purchased Upstate / Millipore Corporation; test: PI 3-Kinase (human) HTRF assay, PI3K γ; assay type: biochemical; conditions: read-out: PI3K γ IC50
Sequence (P48736 whole entry): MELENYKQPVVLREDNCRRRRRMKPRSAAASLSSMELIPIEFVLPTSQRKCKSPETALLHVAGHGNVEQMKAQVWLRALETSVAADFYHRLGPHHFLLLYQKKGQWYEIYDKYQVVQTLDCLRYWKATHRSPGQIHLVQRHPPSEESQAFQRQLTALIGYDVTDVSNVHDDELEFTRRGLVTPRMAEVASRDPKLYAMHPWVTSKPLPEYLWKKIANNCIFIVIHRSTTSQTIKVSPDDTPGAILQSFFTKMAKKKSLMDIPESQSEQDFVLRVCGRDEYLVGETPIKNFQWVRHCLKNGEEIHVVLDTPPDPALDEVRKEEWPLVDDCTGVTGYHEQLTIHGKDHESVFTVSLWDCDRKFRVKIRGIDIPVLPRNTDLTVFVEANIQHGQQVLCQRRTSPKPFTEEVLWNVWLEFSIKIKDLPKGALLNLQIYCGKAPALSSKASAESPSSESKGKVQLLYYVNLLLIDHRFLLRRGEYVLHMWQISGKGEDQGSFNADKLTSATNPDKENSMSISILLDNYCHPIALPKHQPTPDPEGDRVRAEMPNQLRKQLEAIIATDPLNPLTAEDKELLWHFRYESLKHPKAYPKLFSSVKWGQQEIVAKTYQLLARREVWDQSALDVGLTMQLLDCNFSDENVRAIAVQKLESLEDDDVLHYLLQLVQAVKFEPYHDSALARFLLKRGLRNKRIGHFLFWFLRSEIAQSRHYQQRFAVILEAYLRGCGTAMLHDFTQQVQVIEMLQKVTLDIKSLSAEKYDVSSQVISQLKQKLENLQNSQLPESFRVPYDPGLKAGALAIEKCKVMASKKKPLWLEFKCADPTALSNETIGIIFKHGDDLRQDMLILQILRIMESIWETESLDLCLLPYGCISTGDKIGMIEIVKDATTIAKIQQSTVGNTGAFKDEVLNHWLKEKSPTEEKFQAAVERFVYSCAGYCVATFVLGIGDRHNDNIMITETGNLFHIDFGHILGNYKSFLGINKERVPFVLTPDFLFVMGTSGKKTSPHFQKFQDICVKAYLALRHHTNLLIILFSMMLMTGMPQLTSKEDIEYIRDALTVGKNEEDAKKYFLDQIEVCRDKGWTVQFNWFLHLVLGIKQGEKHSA

[
  {
    "molecule": "CS(=O)(=O)CCN1CCN(c2cnc3ccc(-c4ccc5oc(N)nc5c4)cc3n2)CC1",
    "target_or_test_system": "PI3K γ (p110γ) (Homo sapiens, UniProt P48736)",
    "IC50": "< 1000 nM"
  },
  {
    "molecule": "CC(=O)Nc1cc2ccc(-c3cc(F)c4oc(N)nc4c3)cn2n1",
    "target_or_test_system": "PI3K γ (p110γ) (Homo sapiens, UniProt P48736)",
    "IC50": "< 10000 nM"
  },
  {
    "molecule": "Nc1nc2cc(-c3ccc4ncc(N5CCOCC5)nc4c3)ccc2o1",
    "target_or_test_system": "PI3K γ (p110γ) (Homo sapiens, UniProt P48736)",
    "IC50": "< 100 nM"
  },
  {
    "molecule": "CN1CCN(C2CN(c3cnc4ccc(-c5ccc6oc(N)nc6c5)cc4n3)C2)CC1=O",
    "target_or_test_system": "PI3K γ (p110γ) (Homo sapiens, UniProt P48736)",
    "IC50": "< 1000 nM"
  },
  {
    "molecule": "CN1CCN(n2cnc3ccc(-c4ccc5oc(N)nc5c4)cc3c2=O)CC1 [Compound 518]",
    "target_or_test_system": "PI3K γ (p110γ) (Homo sapiens, UniProt P48736)",
    "IC50": "> 10000 nM"
  },
  {
    "molecule": "Nc1nc2cc(-c3ccc4ncc(C(=O)N5CCCC5)n4c3)ccc2o1",
    "target_or_test_system": "PI3K γ (p110γ) (Homo sapiens, UniProt P48736)",
    "IC50": "< 100 nM"
  },
  {
    "molecule": "CC(C)(C)N1CCN(c2cnc3ccc(-c4ccc5oc(N)nc5c4)cc3n2)CC1",
    "target_or_test_system": "PI3K γ (p110γ) (Homo sapiens, UniProt P48736)",
    "IC50": "< 1000 nM"
  },
  {
    "molecule": "Nc1nc2cc(-c3ccc4ncn(C(=O)N5CCOCC5)c4c3)ccc2o1",
    "target_or_test_system": "PI3K γ (p110γ) (Homo sapiens, UniProt P48736)",
    "IC50": "> 10000 nM"
  },
  {
    "molecule": "Nc1nc2cc(-c3ccc4ncc(-c5ccncc5)n4n3)ccc2o1",
    "target_or_test_system": "PI3K γ (p110γ) (Homo sapiens, UniProt P48736)",
    "IC50": "< 100 nM"
  },
  {
    "molecule": "Nc1nc2cc(-c3ccc4ncn(CCCN5CCOCC5)c(=O)c4c3)ccc2o1",
    "target_or_test_system": "PI3K γ (p110γ) (Homo sapiens, UniProt P48736)",
    "IC50": "> 10000 nM"
  },
  {
    "molecule": "O=C(c1cnc2ccc(-c3cnc4cc[nH]c4c3)cn12)N1CCOCC1",
    "target_or_test_system": "PI3K γ (p110γ) (Homo sapiens, UniProt P48736)",
    "IC50": "> 10000 nM"
  },
  {
    "molecule": "Nc1nc2cc(-c3ccc4ncc(N5CCn6cncc6C5)nc4c3)ccc2o1",
    "target_or_test_system": "PI3K γ (p110γ) (Homo sapiens, UniProt P48736)",
    "IC50": "< 100 nM"
  },
  {
    "molecule": "Cc1ncc(-c2ccc3ncc(C(=O)N4CCOCC4)n3c2)c2cc[nH]c12",
    "target_or_test_system": "PI3K γ (p110γ) (Homo sapiens, UniProt P48736)",
    "IC50": "> 10000 nM"
  },
  {
    "molecule": "Nc1nc2cc(-c3ccc4ncn(CCCN5CCCC5)c(=O)c4c3)ccc2o1",
    "target_or_test_system": "PI3K γ (p110γ) (Homo sapiens, UniProt P48736)",
    "IC50": "> 10000 nM"
  },
  {
    "molecule": "Nc1nc2cc(-c3ccc4ncc(C(=O)N5CCOCC5)cc4c3)ccc2o1",
    "target_or_test_system": "PI3K γ (p110γ) (Homo sapiens, UniProt P48736)",
    "IC50": "> 10000 nM"
  },
  {
    "molecule": "CC(C)N1CCN(c2cnc3ccc(-c4ccc5oc(N)nc5c4)cc3n2)C(=O)C1",
    "target_or_test_system": "PI3K γ (p110γ) (Homo sapiens, UniProt P48736)",
    "IC50": "> 10000 nM"
  },
  {
    "molecule": "CN1CCC(n2cnc3ccc(-c4ccc5oc(N)nc5c4)cc3c2=O)CC1",
    "target_or_test_system": "PI3K γ (p110γ) (Homo sapiens, UniProt P48736)",
    "IC50": "> 10000 nM"
  },
  {
    "molecule": "O=C(c1cnc2ccc(-c3cccc(NS(=O)(=O)c4ccccc4)c3)cn12)N1CCOCC1",
    "target_or_test_system": "PI3K γ (p110γ) (Homo sapiens, UniProt P48736)",
    "IC50": "< 10000 nM"
  },
  {
    "molecule": "Nc1nc2cc(-c3cn4c(-c5ccncc5)cnc4cn3)ccc2o1",
    "target_or_test_system": "PI3K γ (p110γ) (Homo sapiens, UniProt P48736)",
    "IC50": "< 1000 nM"
  },
  {
    "molecule": "Nc1nc2ccc(-c3ccc4ncc(N5CCOCC5)nc4c3)cc2s1",
    "target_or_test_system": "PI3K γ (p110γ) (Homo sapiens, UniProt P48736)",
    "IC50": "< 1000 nM"
  },
  {
    "molecule": "Nc1nc2cc(-c3ccc4c(N)n[nH]c4c3)ccc2o1",
    "target_or_test_system": "PI3K γ (p110γ) (Homo sapiens, UniProt P48736)",
    "IC50": "< 1000 nM"
  },
  {
    "molecule": "O=C(c1cnc2ccc(-c3cncc(NS(=O)(=O)c4ccc(F)cc4F)c3)cn12)N1CCOCC1",
    "target_or_test_system": "PI3K γ (p110γ) (Homo sapiens, UniProt P48736)",
    "IC50": "< 100 nM"
  },
  {
    "molecule": "COc1ncc(-c2ccc3ncc(C(=O)N4CCOCC4)n3c2)cc1NS(=O)(=O)c1ccccc1F",
    "target_or_test_system": "PI3K γ (p110γ) (Homo sapiens, UniProt P48736)",
    "IC50": "< 100 nM"
  },
  {
    "molecule": "Cc1cn(-c2cnc3ccc(-c4ccc5oc(N)nc5c4)cc3n2)cn1",
    "target_or_test_system": "PI3K γ (p110γ) (Homo sapiens, UniProt P48736)",
    "IC50": "< 1000 nM"
  },
  {
    "molecule": "CC1(C)CN(C2CN(C(=O)c3cnc4ccc(-c5ccc6oc(N)nc6c5)cn34)C2)CCN1",
    "target_or_test_system": "PI3K γ (p110γ) (Homo sapiens, UniProt P48736)",
    "IC50": "< 1000 nM"
  },
  {
    "molecule": "Nc1nc2cc(-c3ccc4nccn4c3)ccc2o1",
    "target_or_test_system": "PI3K γ (p110γ) (Homo sapiens, UniProt P48736)",
    "IC50": "< 10000 nM"
  },
  {
    "molecule": "Nc1nc2cc(-c3ccc4ncc(N5CC(C(=O)N6CCN(CC7CC7)CC6)C5)nc4c3)ccc2o1",
    "target_or_test_system": "PI3K γ (p110γ) (Homo sapiens, UniProt P48736)",
    "IC50": "< 1000 nM"
  },
  {
    "molecule": "Nc1nc2cc(-c3cn4c(C(=O)N5CCOCC5)cnc4cn3)ccc2o1",
    "target_or_test_system": "PI3K γ (p110γ) (Homo sapiens, UniProt P48736)",
    "IC50": "> 10000 nM"
  },
  {
    "molecule": "Nc1nc2cc(-c3ccc4nnc(C(=O)N5CCOCC5)n4c3)ccc2o1",
    "target_or_test_system": "PI3K γ (p110γ) (Homo sapiens, UniProt P48736)",
    "IC50": "> 10000 nM"
  },
  {
    "molecule": "Nc1nc2cc(-c3ccc4ncc(C(=O)N5CC[C@H](F)C5)n4c3)ccc2o1",
    "target_or_test_system": "PI3K γ (p110γ) (Homo sapiens, UniProt P48736)",
    "IC50": "< 100 nM"
  }
]
